Catalogue of sensor-assay potency score (higher = more potent) readings, one per entry.
# TEST_TARGET: FAM57A
# METHOD: pooled miR-30 sensor sort-seq; sequence = guide strand; note: reference of the scale not given here
# TEST_PARAMETERS: shRNA
Enter the number alone.

Endpoint output: sensor-assay potency score (higher = more potent) of TTCGACTTAGGAAGTTTCGAAG . Value? -0.637

Which measured sensor-assay potency score (higher = more potent) value corresponds to TTGCAGTAGAATGGGATGCTGA ? -0.668

Fill in: sensor-assay potency score (higher = more potent) of TTTAGCTGAATCAGAACCCTGC is ___ 0.947

Further cases:
Would you kindly share the measured sensor-assay potency score (higher = more potent) for TAGGAAGTTTCGAAGAGTGAGG ? -0.893

----------
# TEST_TARGET: FILIP1L
# METHOD: pooled miR-30 sensor sort-seq; sequence = guide strand
# TEST_PARAMETERS: shRNA
Please note: 1.0 applies when sensor-assay potency score (higher = more potent) is -0.6 or greater, and 0.0 applies otherwise.

In plain terms: is recorded sensor-assay potency score (higher = more potent) at least -0.6 for TTGTCTACTGCTTCTGTCTGAA ? 1.0

Confirm if sensor-assay potency score (higher = more potent) reported for the sequence TTACTCTGTAACGTCTCCCTTT is -0.6 or above. 1.0

Quick check: does TTGCTGTTCATCCACCACCATC have sensor-assay potency score (higher = more potent) greater than or equal to -0.6? 0.0

// inclusive: sensor-assay potency score (higher = more potent) at least -0.6? input: TATAGTTCATGCACAAACCTTC 1.0

Does the reported sensor-assay potency score (higher = more potent) for TTTTCTGCTAACTTGTACTTAG fall at or above the -0.6 mark? 1.0

Could you please find out whether TTAGAGAACCACAAGACTCTGG has sensor-assay potency score (higher = more potent) that meets -0.6 or exceeds it? 1.0

Exam item: decide whether the reported sensor-assay potency score (higher = more potent) for TTTTTCCACAACTTTGTCCAAC is at least -0.6. 0.0

Here is another sequence to look at.
Evaluate TTTTTCAACATATTAACTCTTG : sensor-assay potency score (higher = more potent) at minimum -0.6? 1.0

----------
# TEST_TARGET: CACNA2D4
# METHOD: pooled miR-30 sensor sort-seq; sequence = guide strand
# TEST_PARAMETERS: shRNA
Hi, to clarify the labels: MET covers sensor-assay potency score (higher = more potent) from 0.1 upward, NOT MET covers anything below 0.1.

Quick check: does TTGGAGATCAGAATGAACCCGT have sensor-assay potency score (higher = more potent) greater than or equal to 0.1? MET

I'd appreciate it if you could say whether TTCCAGAGGAATCTTGGCCTGT has sensor-assay potency score (higher = more potent) at least equal to 0.1. MET

Reported sensor-assay potency score (higher = more potent) at or above 0.1? TCTGTGATGCAGTAGATCCAGT NOT MET

***
Reported sensor-assay potency score (higher = more potent) reaches at least 0.1 for TCAGGTGTCAGGAACTTCCTGT ? MET

Reported sensor-assay potency score (higher = more potent) at or above 0.1? TTTATACCTGGATAGATCCTGA NOT MET

----------
# TEST_TARGET: PRR3
# METHOD: pooled miR-30 sensor sort-seq; sequence = guide strand
# TEST_PARAMETERS: shRNA
EXPERIMENTAL_READOUT: sensor-assay potency score (higher = more potent)

Give its sensor-assay potency score (higher = more potent) value. Item: TCCTTGTGAAAGCTTCCCCTGG -1.31

# lookup: sensor-assay potency score (higher = more potent) of TTGATAAGAGACCAGCTTTTGA -1.38

Continuing:
Need sensor-assay potency score (higher = more potent) of TAGGAAGTAACTCTGCACCAGT , thanks. -0.0951

Which sensor-assay potency score (higher = more potent) value belongs to TGATCCTGGAGGACCTCTGTGA ? -0.51

Any idea what its sensor-assay potency score (higher = more potent) is? The sequence is TCTGCATTGACTCCCCACCAAC -1.61

Sample TTGTCTTCCATAACCTGGGGGT — what was its sensor-assay potency score (higher = more potent)? -0.114

Which sensor-assay potency score (higher = more potent) is reported for this sequence? TTTGTCTTCCATAACCTGGGGG 0.295
